Provide the recorded IC50 for the entries that follow.
Target desc: hFASN enzyme (full length) (Homo sapiens, UniProt P49327)
Construct: 10 μL hFASN enzyme (full length, 300 ng, purified in house); made in house
Sequence (P49327 whole entry): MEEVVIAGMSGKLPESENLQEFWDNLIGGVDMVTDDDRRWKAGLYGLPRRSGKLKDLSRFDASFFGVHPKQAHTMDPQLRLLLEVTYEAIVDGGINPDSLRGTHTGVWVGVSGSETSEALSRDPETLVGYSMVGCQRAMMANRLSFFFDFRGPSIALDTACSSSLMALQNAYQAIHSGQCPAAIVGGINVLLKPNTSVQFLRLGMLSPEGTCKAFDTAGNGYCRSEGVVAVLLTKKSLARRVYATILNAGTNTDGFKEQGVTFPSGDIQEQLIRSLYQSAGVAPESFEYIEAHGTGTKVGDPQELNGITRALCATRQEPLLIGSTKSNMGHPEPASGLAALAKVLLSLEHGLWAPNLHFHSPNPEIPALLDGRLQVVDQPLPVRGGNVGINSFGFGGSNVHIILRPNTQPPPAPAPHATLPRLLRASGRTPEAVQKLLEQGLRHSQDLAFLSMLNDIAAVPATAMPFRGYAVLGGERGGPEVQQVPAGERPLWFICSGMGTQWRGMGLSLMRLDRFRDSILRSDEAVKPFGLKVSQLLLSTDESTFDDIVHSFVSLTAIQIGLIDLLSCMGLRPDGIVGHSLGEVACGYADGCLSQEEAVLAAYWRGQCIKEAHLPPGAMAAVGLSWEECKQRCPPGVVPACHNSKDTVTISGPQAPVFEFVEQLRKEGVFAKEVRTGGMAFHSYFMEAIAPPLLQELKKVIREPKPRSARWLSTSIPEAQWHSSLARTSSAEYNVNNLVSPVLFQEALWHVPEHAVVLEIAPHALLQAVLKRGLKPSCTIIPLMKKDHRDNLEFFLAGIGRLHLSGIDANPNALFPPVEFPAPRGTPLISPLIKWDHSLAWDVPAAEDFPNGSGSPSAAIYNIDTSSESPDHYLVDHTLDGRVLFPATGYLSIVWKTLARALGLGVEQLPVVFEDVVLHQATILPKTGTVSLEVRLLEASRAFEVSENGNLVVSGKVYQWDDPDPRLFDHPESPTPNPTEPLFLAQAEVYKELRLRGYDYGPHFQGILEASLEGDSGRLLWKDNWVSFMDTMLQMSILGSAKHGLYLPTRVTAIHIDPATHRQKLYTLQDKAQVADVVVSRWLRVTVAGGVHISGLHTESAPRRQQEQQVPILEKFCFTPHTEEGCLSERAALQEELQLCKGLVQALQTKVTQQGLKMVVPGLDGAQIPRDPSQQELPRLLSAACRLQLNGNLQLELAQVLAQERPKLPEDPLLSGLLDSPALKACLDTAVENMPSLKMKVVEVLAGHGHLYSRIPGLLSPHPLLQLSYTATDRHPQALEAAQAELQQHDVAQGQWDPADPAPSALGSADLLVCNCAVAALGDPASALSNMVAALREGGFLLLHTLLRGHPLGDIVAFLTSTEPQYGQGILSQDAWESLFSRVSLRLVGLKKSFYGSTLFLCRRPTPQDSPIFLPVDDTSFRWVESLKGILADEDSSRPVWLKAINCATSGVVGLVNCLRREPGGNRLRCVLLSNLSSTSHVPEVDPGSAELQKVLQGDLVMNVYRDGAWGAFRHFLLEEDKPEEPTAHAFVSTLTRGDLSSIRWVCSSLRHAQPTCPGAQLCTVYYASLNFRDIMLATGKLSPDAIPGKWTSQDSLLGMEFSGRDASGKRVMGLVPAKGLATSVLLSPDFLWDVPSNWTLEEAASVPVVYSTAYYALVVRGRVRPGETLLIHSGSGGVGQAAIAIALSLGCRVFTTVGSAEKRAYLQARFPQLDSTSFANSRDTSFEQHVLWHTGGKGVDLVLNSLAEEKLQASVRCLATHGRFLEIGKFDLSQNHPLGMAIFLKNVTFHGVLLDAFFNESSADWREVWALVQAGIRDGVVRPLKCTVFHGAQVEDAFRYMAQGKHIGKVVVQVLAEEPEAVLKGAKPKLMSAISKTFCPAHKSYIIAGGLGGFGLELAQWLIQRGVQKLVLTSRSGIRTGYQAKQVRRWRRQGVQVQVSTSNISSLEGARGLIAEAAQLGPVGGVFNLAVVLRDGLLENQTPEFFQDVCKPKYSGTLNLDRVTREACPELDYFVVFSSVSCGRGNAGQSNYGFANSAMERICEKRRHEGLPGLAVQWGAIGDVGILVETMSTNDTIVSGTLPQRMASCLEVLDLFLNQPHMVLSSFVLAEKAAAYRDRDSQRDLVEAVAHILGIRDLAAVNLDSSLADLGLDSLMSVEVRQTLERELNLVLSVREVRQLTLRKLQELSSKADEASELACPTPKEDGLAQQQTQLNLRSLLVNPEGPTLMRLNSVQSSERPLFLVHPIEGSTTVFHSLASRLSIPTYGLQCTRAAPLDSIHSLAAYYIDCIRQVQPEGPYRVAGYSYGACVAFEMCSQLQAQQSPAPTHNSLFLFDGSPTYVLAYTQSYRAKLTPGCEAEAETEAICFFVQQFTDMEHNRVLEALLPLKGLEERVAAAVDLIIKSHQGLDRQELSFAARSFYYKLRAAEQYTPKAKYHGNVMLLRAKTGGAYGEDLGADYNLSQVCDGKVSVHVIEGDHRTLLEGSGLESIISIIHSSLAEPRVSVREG
Method notes: Fatty Acid Synthase (FASN) inhibition scintillation proximity assay
Type: biochemical
Measurement conditions: read-out: Human FASN pIC50 (converted)
Respond with the bare value in nM.

Look up IC50 for this compound: CC(C)N1CCC2(CC1)N=C(c1ccc(-c3ccc4cnccc4c3)cc1)N(C[C@@H]1CCN(C(=O)C3CC3)C1)C2=O [compound 163]
229

Quick one: IC50 of Cn1ncc2cc(-c3ccc(C4=NC5(CC5)C(=O)N4C[C@@H]4CCN(C(=O)C5(O)CC5)C4)cc3)ccc21 [compound 200] ?
34.7

I am curious: what IC50 value has been reported for Cc1sc2ccc(-c3ccc(C4=NC5(CCN(C(=O)C(C)C)CC5)C(=O)N4C[C@@H]4CCN(C(=O)C5CC5)C4)cc3)cc2c1C [compound 183] ?
138
